Test: Clearance in iv dosed rat
Format: ADME, organism-based
Conditions: in vivo
measurement.label: clearance (mL/min/kg)
Give bare numbers, in mL/min/kg.

Solved cases (2 shown):
cpd.smiles | clearance [mL/min/kg]
C[C@H](CCC(C)(C)O)[C@H]1CC[C@H]2[C@@H]3CC=C4C[C@@](C)(O)CC[C@]4(C)[C@H]3CC[C@]12C | 18.3
C[C@H](CC[C@@H](O)C1CC1)[C@H]1CC[C@H]2[C@@H]3CC=C4C[C@@](C)(O)CC[C@]4(C)[C@H]3CC[C@]12C | 68.3

Please find the next molecule below.
Qu. What clearance value was documented for this molecule, CC(C)[C@H](O)CC[C@@H](C)[C@H]1CC[C@H]2[C@@H]3CC=C4C[C@@](C)(O)CC[C@]4(C)[C@H]3CC[C@]12C ?
Ans. 38.3

---

Experiment: Stability in human liver microsomes
Assay type: ADME, Microsome
Conditions: read-out: Stability
Provide the recorded microsomal CLint for the entries that follow.

Reference set, count: 2
cpd.smiles | measured.result
C[C@H](CCC1(O)CC1)[C@H]1CC[C@H]2[C@@H]3CC=C4C[C@@](C)(O)CC[C@]4(C)[C@H]3CC[C@]12C | 6 µL/min/mg
C[C@H](CC[C@@H](O)C1CC1)[C@H]1CC[C@H]2[C@@H]3CC=C4C[C@@](C)(O)CC[C@]4(C)[C@H]3CC[C@]12C | 10 µL/min/mg

Qu. Find the recorded microsomal CLint belonging to CC(C)[C@@H](O)CC[C@@H](C)[C@H]1CC[C@H]2[C@@H]3CC=C4C[C@@H](O)CC[C@]4(C)[C@H]3CC[C@]12C and report it.
Ans. 10 µL/min/mg

---

Biological target: Glutamate NMDA receptor; GRIN1/GRIN2B (Homo sapiens, UniProt Q05586+Q13224)
Assay: Positive allosteric modulation of recombinant human GluN1/GluN2B receptor stably expressed in HEK293 cells assessed as increase in glycine/L-glutamate-induced channel current at -70 mV holding potential by IonWork whole cell patch clamp method relative to control
For each of the compounds below, state its Emax.
One number for each entry, in %.

cpd.smiles | Emax, %
C[C@H](CCCC(C)(C)O)[C@H]1CC[C@H]2[C@@H]3CC=C4C[C@@H](O)CC[C@]4(C)[C@H]3CC[C@]12C | 67
CC(C)[C@H](O)CC[C@@H](C)[C@H]1CC[C@H]2[C@@H]3CC=C4C[C@@H](O)CC[C@]4(C)[C@H]3CC[C@]12C | 140
CC(C)[C@@H](O)CC[C@@H](C)[C@H]1CC[C@H]2[C@@H]3CC=C4C[C@@H](O)CC[C@]4(C)[C@H]3CC[C@]12C | 150
C[C@H](CCC(C)(C)O)[C@H]1CC[C@H]2[C@@H]3CC=C4C[C@](C)(O)CC[C@]4(C)[C@H]3CC[C@]12C | 160
C[C@H](O)CC[C@@H](C)[C@H]1CC[C@H]2[C@@H]3CC=C4C[C@@](C)(O)CC[C@]4(C)[C@H]3CC[C@]12C | 50

Could you now look at the following compound, please?
Qu. Given the entry C[C@H](CC[C@H](O)C(F)(F)F)[C@H]1CC[C@H]2[C@@H]3CC=C4C[C@@](C)(O)CC[C@]4(C)[C@H]3CC[C@]12C , report its measured Emax.
Ans. 170

Measured values drawn from ChEMBL document CHEMBL4406822 for this set.
